# Test system: THP-1
# TEST: Inhibitory activity evaluated against human THP-1 cell line in cellular assay
# Assay type: functional, cell-based
pIC50: −log10 of the molar value.
Assign fulfilled whenever pIC50 does not fall below 6; assign not fulfilled whenever it does.

Worked examples follow.
CC(C)[C@H](NC(=O)C(=O)NC1CCCc2ccccc21)C(=O)N[C@@H](CC(=O)O)C(=O)COc1c(F)c(F)cc(F)c1F (some centres not stated) | not fulfilled
CC(C)[C@H](NC(=O)C(=O)Nc1c(F)c(F)c(F)c(F)c1F)C(=O)N[C@@H](CC(=O)O)C(=O)COc1c(F)c(F)cc(F)c1F | fulfilled

Req: API: above_or_equal(metric=pIC50, cutoff=6) for item COC(=O)c1cc(OCC(=O)[C@H](CC(=O)O)NC(=O)[C@@H](NC(=O)C(=O)Nc2cccc3ccccc23)C(C)C)no1
Resp: fulfilled

Req: API: above_or_equal(metric=pIC50, cutoff=6) for item CCCCCCCc1ccc(NC(=O)C(=O)N[C@H](C(=O)N[C@@H](CC(=O)O)C(=O)COc2c(F)c(F)cc(F)c2F)C(C)C)cc1
Resp: not fulfilled

Req: API: above_or_equal(metric=pIC50, cutoff=6) for item CC(C)[C@H](NC(=O)C(=O)Nc1ccc(I)cc1F)C(=O)N[C@@H](CC(=O)O)C(=O)COc1c(F)c(F)cc(F)c1F
Resp: fulfilled

Req: API: above_or_equal(metric=pIC50, cutoff=6) for item CC(C)[C@H](NC(=O)C(=O)Nc1ccccc1Cc1ccccc1)C(=O)N[C@@H](CC(=O)O)C(=O)COc1c(F)c(F)cc(F)c1F
Resp: fulfilled

Req: API: above_or_equal(metric=pIC50, cutoff=6) for item COc1cc(CNC(=O)C(=O)N[C@H](C(=O)N[C@@H](CC(=O)O)C(=O)COc2c(F)c(F)cc(F)c2F)C(C)C)cc(OC)c1OC
Resp: not fulfilled

Req: API: above_or_equal(metric=pIC50, cutoff=6) for item CC(C)[C@H](NC(=O)C(=O)NCCc1ccccc1)C(=O)N[C@@H](CC(=O)O)C(=O)COc1c(F)c(F)cc(F)c1F
Resp: fulfilled

Req: API: above_or_equal(metric=pIC50, cutoff=6) for item CC(C)[C@H](NC(=O)C(=O)NCc1ccccc1)C(=O)N[C@@H](CC(=O)O)C(=O)COc1c(F)c(F)cc(F)c1F
Resp: fulfilled

Req: API: above_or_equal(metric=pIC50, cutoff=6) for item O=C(O)C[C@H](NC(=O)[C@H](CCc1ccccc1)NC(=O)C(=O)Nc1cccc2ccccc12)C(=O)COc1c(F)c(F)cc(F)c1F
Resp: not fulfilled

---

Assay read-out IC50; system under study: Caspase-9 (Homo sapiens).
Sequence (P55211 1-315 limits assumed): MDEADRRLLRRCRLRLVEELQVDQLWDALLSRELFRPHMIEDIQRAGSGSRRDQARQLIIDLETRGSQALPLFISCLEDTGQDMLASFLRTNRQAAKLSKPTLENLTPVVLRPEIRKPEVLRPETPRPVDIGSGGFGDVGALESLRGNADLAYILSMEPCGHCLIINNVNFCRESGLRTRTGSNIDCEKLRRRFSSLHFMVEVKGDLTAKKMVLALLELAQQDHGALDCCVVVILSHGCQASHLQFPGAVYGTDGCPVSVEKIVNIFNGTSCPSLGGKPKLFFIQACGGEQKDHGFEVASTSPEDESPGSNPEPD
Sequence (P55211 331-416 limits assumed): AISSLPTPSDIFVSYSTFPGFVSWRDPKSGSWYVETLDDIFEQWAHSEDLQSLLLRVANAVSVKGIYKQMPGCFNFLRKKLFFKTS
Report the figure in nM without appending any unit label.

CC(C)C[C@H](NC(=O)COc1cccc2ccccc12)C(=O)N[C@H](C=O)CC(=O)O | 2720

Req: Give the reported IC50 for CC(C)C[C@H](NC(=O)CNc1cccc2ccccc12)C(=O)N[C@H](C=O)CC(=O)O (system: Caspase-9 (Homo sapiens)).
Resp: 160

Req: Give the reported IC50 for CC(C)C[C@H](NC(=O)C(=O)Nc1cccc2ccccc12)C(=O)N[C@H](C=O)CC(=O)O (system: Caspase-9 (Homo sapiens)).
Resp: 230

---

# Test system: THP-1
# TEST: Inhibitory activity evaluated against human THP-1 cell line in cellular assay
# Type: functional, cell-based
PROPERTY_MEASURED: pIC50
Would you please state pIC50, meaning minus log10 of the concentration in mol/L, as a bare number?

CNC(=O)C(=O)N[C@H](C(=O)N[C@@H](CC(=O)O)C(=O)COc1c(F)c(F)cc(F)c1F)C(C)C | 5.91
CC(C)[C@H](NC(=O)C(=O)Nc1cccc2c1CCCC2)C(=O)N[C@@H](CC(=O)O)C(=O)COc1c(F)c(F)cc(F)c1F | 5.96
CC(C)[C@H](NC(=O)C(=O)Nc1ccccc1Br)C(=O)N[C@@H](CC(=O)O)C(=O)COc1c(F)c(F)cc(F)c1F | 6.27
CC(C)[C@H](NC(=O)C(=O)Nc1cccc2ccccc12)C(=O)N[C@@H](CC(=O)O)C(=O)COS(=O)c1ccccc1 (stereo partly drawn) | 5.08
CC(C)[C@H](NC(=O)C(=O)Nc1ccccc1C(C)(C)C)C(=O)N[C@@H](CC(=O)O)C(=O)COc1c(F)c(F)cc(F)c1F | 5.73
CC(C)[C@H](NC(=O)C(=O)Nc1cccc2ccccc12)C(=O)N[C@@H](CC(=O)O)C(=O)COP(=O)(c1ccccc1)c1ccccc1 | 6.19
CCCCCCCNC(=O)C(=O)N[C@H](C(=O)N[C@@H](CC(=O)O)C(=O)COc1c(F)c(F)cc(F)c1F)C(C)C | 5.11
CC(C)[C@H](NC(=O)C(=O)NNc1ccccc1)C(=O)N[C@@H](CC(=O)O)C(=O)COc1c(F)c(F)cc(F)c1F | 5.18
CC(C)[C@H](NC(=O)C(=O)Nc1cc(C(C)(C)C)ccc1C(C)(C)C)C(=O)N[C@@H](CC(=O)O)C(=O)COc1c(F)c(F)cc(F)c1F | 5.58
O=C(O)C[C@H](NC(=O)C1Cc2ccccc2N1C(=O)C(=O)Nc1cccc2ccccc12)C(=O)COc1c(F)c(F)cc(F)c1F (stereo partly drawn) | 4.65

Req: Give the reported pIC50 for CC(C)[C@H](NC(=O)C(=O)Nc1ccccc1Cl)C(=O)N[C@@H](CC(=O)O)C(=O)COc1c(F)c(F)cc(F)c1F (system: THP-1).
Resp: 6.80

Req: Give the reported pIC50 for O=C(O)C[C@H](NC(=O)C(NC(=O)C(=O)Nc1cccc2ccccc12)c1ccccc1)C(=O)COc1c(F)c(F)cc(F)c1F (stereo partly drawn) (system: THP-1).
Resp: 5.56

---

# Organism: Homo sapiens
# TEST: Inhibitory activity against human monocyte
# Type: functional
PROPERTY_MEASURED: pIC50
Would you please state pIC50, meaning minus log10 of the concentration in mol/L, as a bare number?

Req: // query pIC50 value for entry CC(C)C[C@H](NC(=O)C(=O)Nc1cccc2ccccc12)C(=O)N[C@H](C=O)CC(=O)O
Resp: 5.51

---

Known pIC50 of a selection of compounds
# Tested on: THP-1
# TEST: Inhibitory activity evaluated against human THP-1 cell line in cellular assay
# Assay type: functional, cell-based
Would you please state pIC50, meaning minus log10 of the concentration in mol/L, as a bare number?

Use the examples below as a reference point.
CC(C)[C@H](NC(=O)C(=O)Nc1ccccc1-c1ccccc1)C(=O)N[C@@H](CC(=O)O)C(=O)COc1c(F)c(F)cc(F)c1F | 6.80
CC(C)[C@H](NC(=O)C(=O)Nc1c(Cl)c(Cl)cc(Cl)c1Cl)C(=O)N[C@@H](CC(=O)O)C(=O)COc1c(F)c(F)cc(F)c1F | 5.98
CC(C)[C@H](NC(=O)C(=O)Nc1ccc(Cl)c2ccccc12)C(=O)N[C@@H](CC(=O)O)C(=O)COc1c(F)c(F)cc(F)c1F | 6.21
COc1ccccc1NC(=O)C(=O)N[C@H](C(=O)N[C@@H](CC(=O)O)C(=O)COc1c(F)c(F)cc(F)c1F)C(C)C | 6.40
CC(C)[C@H](NC(=O)C(=O)Nc1cccc2ccccc12)C(=O)N[C@@H](CC(=O)O)C(=O)COc1ccc2ccccc2c1 | 5.71
CC(C)[C@H](NC(=O)C(=O)Nc1ccccc1)C(=O)N[C@@H](CC(=O)O)C(=O)COc1c(F)c(F)cc(F)c1F | 7.15

Req: // query pIC50 value for entry CC(C)[C@H](NC(=O)C(=O)Nc1cccc2ccccc12)C(=O)N[C@@H](CC(=O)O)C(=O)COc1cccc2ccccc12
Resp: 5.51

---

# System: THP-1
# TEST: Inhibitory activity evaluated against human THP-1 cell line in cellular assay
# Assay type: functional, cell-based
Known pIC50 of a selection of compounds
Would you please state pIC50, meaning minus log10 of the concentration in mol/L, as a bare number?

Use the examples below as a reference point.
CC(C)[C@H](NC(=O)C(=O)Nc1ccccn1)C(=O)N[C@@H](CC(=O)O)C(=O)COc1c(F)c(F)cc(F)c1F | 5.84
CC(C)[C@H](NC(=O)C(=O)Nc1cccc2ccccc12)C(=O)N[C@@H](CC(=O)O)C(=O)COP(C)(=O)c1ccccc1 (some centres not stated) | 7.05
CC(C)[C@H](NC(=O)C(=O)NN(C(=O)c1ccccc1)c1ccccc1)C(=O)N[C@@H](CC(=O)O)C(=O)COc1c(F)c(F)cc(F)c1F | 6.20

Req: Give the reported pIC50 for CC(C)[C@H](NC(=O)C(=O)Nc1cccc2ccccc12)C(=O)N[C@@H](CC(=O)O)C(=O)COc1c(F)cccc1F (system: THP-1).
Resp: 6.32

Req: Give the reported pIC50 for CC(C)[C@H](NC(=O)C(=O)Nc1cccc2cc3ccccc3cc12)C(=O)N[C@@H](CC(=O)O)C(=O)COc1c(F)c(F)cc(F)c1F (system: THP-1).
Resp: 6.66

Req: Give the reported pIC50 for CC(C)[C@H](NC(=O)C(=O)NC(c1ccccc1)c1ccccc1)C(=O)N[C@@H](CC(=O)O)C(=O)COc1c(F)c(F)cc(F)c1F (system: THP-1).
Resp: 6.77

Req: Give the reported pIC50 for CC(C)[C@H](NC(=O)C(=O)NN(c1ccccc1)c1ccccc1)C(=O)N[C@@H](CC(=O)O)C(=O)COc1c(F)c(F)cc(F)c1F (system: THP-1).
Resp: 6.11
